# Tested on: CU-ACC1
# test-method-notes: AC50 viability; higher = less potent
# measurement-conditions: 48 h
measurement-name: log10(AC50 viability) (log10 of the value in µM)
Hello, just confirming the data are log10 of AC50 viability with units of µM.

Some molecules with known log10(AC50 viability) results, for comparison:
C[C@@H](O)[C@@H](C)Oc1nc(Nc2ccc([S+](=N)([O-])C3CC3)cc2)ncc1C(F)(F)F (some centres not stated) : 1.37
C[C@@H](Oc1ccc2[nH]nc(/C=C/c3cnn(CCO)c3)c2c1)c1c(Cl)cncc1Cl : 1.22
c1ccc2c(-c3cnn4cc(-c5ccc(OCCN6CCOCC6)cc5)cnc34)ccnc2c1 : 0.66
COc1ccc(F)c(F)c1C(=O)c1cnc(NC2CCN([S+](C)(=O)[O-])CC2)nc1N : 0.37
CC1=C(C)C2=C(S1)[N]3C(=NN=C3[C@H](CC(=O)OC(C)(C)C)/N=C2/C4=CC=C(Cl)C=C4)C : 1.27
COC(=O)[C@]12CCC(C)(C)C[C@H]1[C@H]3C(=O)\C=C\4[C@@](C)(CC[C@H]5C(C)(C)C(=O)\C(=C/[C@]45C)C#N)[C@]3(C)CC2 : 1.32

**Query** Any idea what log10(AC50 viability) was measured for Cc1ccc(NC(=O)Nc2cc(C(F)(F)F)ccc2F)cc1Nc1ccc2c(c1)NC(=O)/C2=C\c1ccc[nH]1 ?
**Result** 1.17

**Query** Any idea what log10(AC50 viability) was measured for COc1cccc([C@@H](C)NCCCc2ccccc2Cl)c1 ?
**Result** 1.32

**Query** Any idea what log10(AC50 viability) was measured for COc1cc2c(cc1O)CCN[C@]21CS[C@@H]2c3c(OC(C)=O)c(C)c4c(c3[C@H](COC1=O)N1[C@@H]2[C@H]2c3c(cc(C)c(OC)c3O)C[C@@H]([C@@H]1O)N2C)OCO4 ?
**Result** -2.07

**Query** Any idea what log10(AC50 viability) was measured for Nc1ccccc1NC(=O)c1ccc(CNC(=O)OCc2cccnc2)cc1 ?
**Result** 0.57

**Query** Any idea what log10(AC50 viability) was measured for COC1=CC=C(C=C1)C/2=C/OC3=C(C(=CC(=C3)O)O)C2=O ?
**Result** -1.18

**Query** Any idea what log10(AC50 viability) was measured for COc1ccc(Cl)c(Nc2ncnc3cc(OCC4CCN(C)CC4)c(OC)cc23)c1 ?
**Result** 1.37

====

# Test system: NCI-H295R
# test-method-notes: AC50 viability; higher = less potent
# measurement-conditions: 48 h
measurement-name: AC50 viability (µM)
Give the number; µM is assumed, so skip it.

**Query** Any idea what AC50 viability was measured for CC(C)(O)/C=C\C(=O)[C@](C)(O)[C@H]1[C@H](O)C[C@]2(C)[C@@H]3CC=C4[C@@H](C=C(O)C(=O)C4(C)C)[C@]3(C)C(=O)C[C@@]12C ?
**Result** 5.25

**Query** Any idea what AC50 viability was measured for CC(C)c1onc(-c2c(Cl)cccc2Cl)c1COc1ccc(/C=C/c2cccc(C(=O)O)c2)c(Cl)c1 ?
**Result** 13.2

**Query** Any idea what AC50 viability was measured for COc1ccc(F)c(F)c1C(=O)c1cnc(NC2CCN([S+](C)(=O)[O-])CC2)nc1N ?
**Result** 4.68
